Reference source for all entries: the nanobody polyreactivity screen of Harvey et al. (2022)

method_summary: yeast display, Sf9 membrane polyspecificity reagent, FACS + sequencing; frameworks hold sequencing errors
property_name: polyreactivity (PSR sort gate)

Examples with answers:
## Task For the sequence QVQLVESGGGLVQAGGSLRLSCAASGFTFYAYAMGWYRQAPGKERELVAAITWSGGRTYYADSVKGRFTISRDNAKNTVYLQMNSLKPEDTAVYYCAKRYWGQARYHTGHDYWGQGTQVTVSS , what polyreactivity (PSR sort gate) is on record?
## Result high polyreactivity

## Task Follow-up entry: QVQLVESGGGLVQAGGSLRLSCAASGRIFRPYAMGWYRQAPGKERELVASINYSGGSTYADSVKGRFTISRDNAKNTVYLQMNSLKPEDTAVYYCNVYRDGFRYTAWYTGQTFDYWGQGTQVTVSS
## Result low polyreactivity

## Task And then QVQLVESGGGLVQAGGSLRLSCAASGSTFYHYAMGWYRQAPGKERELVAAISTSGGRTYDADSVKGRFTISRDNAKNNVYLQMNSLKPEDTAVYYCAARPGSWYPSVPSYNYWGQGTQVTVSS , what is it?
## Result low polyreactivity

## Task Another sequence: QVQLVESGGGLVQAGGSLRLSCAASGRSFGLYAMGWYRQAPGKERELVAAISYSGGRTYYADSVKRRFTLSRDNAKKTVYLQRNILKPEDTGVYYCNKAWFPYYYYRFDYWGQGTQVTVSS
## Result high polyreactivity

## Task Request: QVQLVESGGGLVQAGGSLRLSCAASGITFDRYALGWYRPAPGKEREFVAAISWRGGSTYYADSVKGRFTISRDNAKNTVYLQMNSLKPEDTAVYYCAVGYYDHDYWYEYWGQGTQVTVSS
## Result high polyreactivity

Next:
## Task Please give the measured polyreactivity (PSR sort gate) for this sequence: QVQLVESGGRLVQAGRSLRLSCAASGRTLKQYVMGWYRQAPGKERELVAAISRRGSSTYYADSVKGRFTISRDNAKNTVYLQMYSLKPEDTAVYYCAAPVYTTRHITAAYEEYGYWGQGTQVNVSS
## Result high polyreactivity

## Task What about QVQLVESGGGLVQAGGSLSLSCAASGFILDFNSLGWYRQAPGKERELVAAISISGVSTYYADSVKGRFTISRDNAKNTVYLQMHSLKPEDTAVYYGAAAQVAAVYWRPGGYDYWGQGTQVTVSS ?
## Result low polyreactivity

## Task Okay, and QVHLVESGGGLVQAGGSLRLSCAASGFIFSCYAMGWYRQAPGKERELVATITSGGSTVYADSVKGRFTISRDNAKNTVSLEMNSLKPEDTAVYYSNVDSTLYYLSRDYDYWGQATQVTVSS ?
## Result high polyreactivity

## Task Next entry: QVQLVESGGGLVQAGGSLRLSCAASGRIFAANTMGWYRQAPGKEREFVAVIRGRGGSTYYADSVKGRFTISRDNAKNTVYLQMNSLKPEDTAVYYCAAYYKPYRERLYGYWGQGTQVTVSS
## Result high polyreactivity

## Task Same question, QVQLVESGGGLVQAGGSLRLICAASGVSNAKGWYRQAPGKERELVAAISRSGGSTYYADSVKGRFTISRDNAKNTVYIQMNSLKPEDTAVYYCAAGYRTRGLYSRLDWGQGTQVTVSS this time
## Result high polyreactivity

## Task # iterate: QVQLVESGGGLVQAGGSLRLSCAASGTFYGNTMGWYRRPPGKERELVAVISIDGSTNYADSVKGRFTISRDNAKNTVYLQMNSLKPEDTAVYYCAADYWRQFRDYDYWGQGTQVTVSS
## Result low polyreactivity

## Task Next: QVQIVESGGGLVQAGGSLRLSCAASGSIFSVYAMGWYRQAPGKERELVAAIRYGDTSTYYADSVKGRFTISRDNAKNTVYFQMNSLKPEDTAVYYCAADLYAYEREYWGQGTQVTVSS
## Result low polyreactivity

## Task How about this sequence: QVQLVESGGGLVQAGGSLRLSCAASGFNFSHNAMGWYRQAPGKERELVAAISGSGGRTYYADSVKGRFTISRDNAKNTVDLQMNSLKPEDTAVYYCNAGRWWRRGYGYWGQVTQVTVSS
## Result high polyreactivity

## Task # repeat for QVQLVESGGGLVQAGGRLRLSCAASGRIFSYNAMGWYRQAPGKERELVAGITSGGRTYYADSVKGRFTISRDNAKNTVYLQMNSLKPEDTAVYYCAARYVPARTRYYYWGQGTQVTVSS
## Result high polyreactivity

## Task Same again, this time with QVQLVESGGGLVQAGGSLRLSGAASGITFGDYAMGWYRQEPGKERELVAAISYSGGSTYYTDSVKGRFTISRDNAKNTVYLQMNSLKPEDTAVYYCAARFRQLGLAYYYWGQGTQVTVSS
## Result high polyreactivity

## Task Now consider QVQLVESGGGLVQAGGSLRLSCAASGSTFFKYAMGWYRQAPGKERELVAGITSDGSTNYADSVKGRFTISRDNAKNTVYLQMNSLKPEDTAVYYCAADGSKWGVGTYDYWGQGTQVTVSS .
## Result low polyreactivity

## Task Now this one: QVQLVESGGGLVQAGGSLRLSCAASGFIFDKYAMGWYRQAPGKERELVAAINWSGDSTYYADSVKGRFTISRDNAKNTVYLQMNSLKPEDTAVYYCNARRPRFRYDYWGQGTQVTVSS
## Result high polyreactivity

## Task Can you handle QVQLVESGGGLVQAGGSLRLSCAASGRTFARYVMGWYRPAPGKERELVASISNSGGSTYYADSVKGRFTISRDNAKNTVYLQMNSQKPEDTAVSYCARRYYYWGQGTQVTVSS next?
## Result high polyreactivity

## Task Also QVQLVESGGGLVQAGGSLRLSCAASGSTFASYAMGWSRQAPGKERELVAAIRWRGGTTYYADSVKGRFTISRDNAKNTVYLQMNSLKPEDTAVYYCNADRYYLYYYWGQGTQVTVSW , if possible.
## Result low polyreactivity

## Task What do we get for QVQLVESGGGIVQAGGSLRLSCAASGRIFYSYAMGWYRQAPGKERELVATISSGGSTNYADSVKGRFTISRDNAKNTVYLQMNSLKPEDTAVYYCGRQSLRYSYVSRDYWGQGSQVTVSS ?
## Result low polyreactivity

## Task Next record, please: QVQLVESGGGLVHAGGSLRLSCAASGFTFTFYAMGWYRQAPGKERELVATISSNGGSTYYADSVKGRFTISRDNAKNTVYLQMNSLKPEDTAVYYCAAITSYYGYYYWGQGTQVTVSS
## Result high polyreactivity
